# assay details: Soluble peptide degradation, Media condition (cell-conditioned media, LC-MS)
# Assay type: in vitro ADME, human
# assay context: human, hMSC-conditioned media without cells (Media condition); Figure 3B heatmap; split-and-pool libraries KLVADX1X2ASAE in hMSC-conditioned media without cells; 24 h; LC-MS, ratio to βFβA6; N = 2; read-out: Fraction of peptide remaining after 24 hours: hMSC Media
Where a SMILES comes first, the peptide text is derived from it. [ ]: non-standard residue; d: D form. βAla = NCCC(=O)O
test readout: remaining at 24 h (%)
Hi! Could you send only the number? It should be in %, unit omitted.

Examples with their reported remaining at 24 h follow.
CC(=O)NCCC(=O)N[C@@H](CCCCN)C(=O)N[C@@H](CC(C)C)C(=O)N[C@H](C(=O)N[C@@H](C)C(=O)N[C@@H](CC(=O)O)C(=O)N1CCC[C@H]1C(=O)N[C@@H](Cc1ccc(O)cc1)C(=O)N[C@@H](C)C(=O)N[C@@H](CO)C(=O)N[C@@H](C)C(=O)N[C@@H](CCC(=O)O)C(=O)NCCC(N)=O)C(C)C [KLVAD-PY] (Ac-[βAla]KLVADPYASAE[βAla]-NH2)	81
CC(=O)NCCC(=O)N[C@@H](CCCCN)C(=O)N[C@@H](CC(C)C)C(=O)N[C@H](C(=O)N[C@@H](C)C(=O)N[C@@H](CC(=O)O)C(=O)NCC(=O)N[C@@H](Cc1ccc(O)cc1)C(=O)N[C@@H](C)C(=O)N[C@@H](CO)C(=O)N[C@@H](C)C(=O)N[C@@H](CCC(=O)O)C(=O)NCCC(N)=O)C(C)C [Gly-Tyr] (Ac-[βAla]KLVADGYASAE[βAla]-NH2)	74
CC[C@H](C)[C@H](NC(=O)[C@H](Cc1ccc(O)cc1)NC(=O)[C@H](CC(=O)O)NC(=O)[C@H](C)NC(=O)[C@@H](NC(=O)[C@H](CC(C)C)NC(=O)[C@H](CCCCN)NC(=O)CCNC(C)=O)C(C)C)C(=O)N[C@@H](C)C(=O)N[C@@H](CO)C(=O)N[C@@H](C)C(=O)N[C@@H](CCC(=O)O)C(=O)NCCC(N)=O [Tyr-Ile] (Ac-[βAla]KLVADYIASAE[βAla]-NH2)	76
CC(=O)NCCC(=O)N[C@@H](CCCCN)C(=O)N[C@@H](CC(C)C)C(=O)N[C@H](C(=O)N[C@@H](C)C(=O)N[C@@H](CC(=O)O)C(=O)N[C@@H](CCC(=O)O)C(=O)N1CCC[C@H]1C(=O)N[C@@H](C)C(=O)N[C@@H](CO)C(=O)N[C@@H](C)C(=O)N[C@@H](CCC(=O)O)C(=O)NCCC(N)=O)C(C)C [Glu-Pro] (Ac-[βAla]KLVADEPASAE[βAla]-NH2)	79
CSCC[C@H](NC(=O)[C@H](CC(=O)O)NC(=O)[C@H](C)NC(=O)[C@@H](NC(=O)[C@H](CC(C)C)NC(=O)[C@H](CCCCN)NC(=O)CCNC(C)=O)C(C)C)C(=O)N[C@@H](Cc1c[nH]cn1)C(=O)N[C@@H](C)C(=O)N[C@@H](CO)C(=O)N[C@@H](C)C(=O)N[C@@H](CCC(=O)O)C(=O)NCCC(N)=O [Met-His] (Ac-[βAla]KLVADMHASAE[βAla]-NH2)	74

Tell me remaining at 24 h reported for CC(=O)NCCC(=O)N[C@@H](CCCCN)C(=O)N[C@@H](CC(C)C)C(=O)N[C@H](C(=O)N[C@@H](C)C(=O)N[C@@H](CC(=O)O)C(=O)N[C@@H](CC(C)C)C(=O)N[C@@H](CC(C)C)C(=O)N[C@@H](C)C(=O)N[C@@H](CO)C(=O)N[C@@H](C)C(=O)N[C@@H](CCC(=O)O)C(=O)NCCC(N)=O)C(C)C [Leu-Leu] (Ac-[βAla]KLVADLLASAE[βAla]-NH2)
73

Tell me remaining at 24 h reported for CC(=O)NCCC(=O)N[C@@H](CCCCN)C(=O)N[C@@H](CC(C)C)C(=O)N[C@H](C(=O)N[C@@H](C)C(=O)N[C@@H](CC(=O)O)C(=O)N1CCC[C@H]1C(=O)N[C@@H](Cc1ccccc1)C(=O)N[C@@H](C)C(=O)N[C@@H](CO)C(=O)N[C@@H](C)C(=O)N[C@@H](CCC(=O)O)C(=O)NCCC(N)=O)C(C)C [Pro-Phe] (Ac-[βAla]KLVADPFASAE[βAla]-NH2)
73

----------
# assay details: Soluble peptide degradation, Media condition (cell-conditioned media, LC-MS)
# Assay type: in vitro ADME, human
# assay context: human, hUVEC-conditioned media without cells (Media condition); Figure 3B heatmap; split-and-pool libraries KLVADX1X2ASAE in hUVEC-conditioned media without cells; 24 h; LC-MS, ratio to βFβA6; N = 2; read-out: Fraction of peptide remaining after 24 hours: hUVEC Media
Where a SMILES comes first, the peptide text is derived from it. [ ]: non-standard residue; d: D form. βAla = NCCC(=O)O
This listing pairs compounds with measured remaining at 24 h.
Hi! Could you send only the number? It should be in %, unit omitted.

Examples with their reported remaining at 24 h follow.
CC(=O)NCCC(=O)N[C@@H](CCCCN)C(=O)N[C@@H](CC(C)C)C(=O)N[C@H](C(=O)N[C@@H](C)C(=O)N[C@@H](CC(=O)O)C(=O)NCC(=O)N[C@@H](Cc1ccc(O)cc1)C(=O)N[C@@H](C)C(=O)N[C@@H](CO)C(=O)N[C@@H](C)C(=O)N[C@@H](CCC(=O)O)C(=O)NCCC(N)=O)C(C)C [Gly-Tyr] (Ac-[βAla]KLVADGYASAE[βAla]-NH2)	100
CC(=O)NCCC(=O)N[C@@H](CCCCN)C(=O)N[C@@H](CC(C)C)C(=O)N[C@H](C(=O)N[C@@H](C)C(=O)N[C@@H](CC(=O)O)C(=O)N[C@@H](CCC(=O)O)C(=O)N1CCC[C@H]1C(=O)N[C@@H](C)C(=O)N[C@@H](CO)C(=O)N[C@@H](C)C(=O)N[C@@H](CCC(=O)O)C(=O)NCCC(N)=O)C(C)C [Glu-Pro] (Ac-[βAla]KLVADEPASAE[βAla]-NH2)	96
CC(=O)NCCC(=O)N[C@@H](CCCCN)C(=O)N[C@@H](CC(C)C)C(=O)N[C@H](C(=O)N[C@@H](C)C(=O)N[C@@H](CC(=O)O)C(=O)N[C@@H](CC(=O)O)C(=O)N[C@@H](CCC(N)=O)C(=O)N[C@@H](C)C(=O)N[C@@H](CO)C(=O)N[C@@H](C)C(=O)N[C@@H](CCC(=O)O)C(=O)NCCC(N)=O)C(C)C [Asp-Gln] (Ac-[βAla]KLVADDQASAE[βAla]-NH2)	102

Tell me remaining at 24 h reported for CC(=O)NCCC(=O)N[C@@H](CCCCN)C(=O)N[C@@H](CC(C)C)C(=O)N[C@H](C(=O)N[C@@H](C)C(=O)N[C@@H](CC(=O)O)C(=O)N[C@@H](CO)C(=O)N[C@@H](CC(=O)O)C(=O)N[C@@H](C)C(=O)N[C@@H](CO)C(=O)N[C@@H](C)C(=O)N[C@@H](CCC(=O)O)C(=O)NCCC(N)=O)C(C)C [Ser-Asp] (Ac-[βAla]KLVADSDASAE[βAla]-NH2)
94

----------
This listing pairs compounds with measured remaining at 24 h.
# assay details: Soluble peptide degradation, Cells condition (LC-MS)
# Format: in vitro ADME, human
# assay context: human, hUVECs in culture with fresh media (Cells condition); Figure 3B heatmap; split-and-pool libraries KLVADX1X2ASAE in media on hUVECs; 24 h; LC-MS, ratio to βFβA6; N = 2; read-out: Fraction of peptide remaining after 24 hours: hUVEC Cells
Where a SMILES comes first, the peptide text is derived from it. [ ]: non-standard residue; d: D form. βAla = NCCC(=O)O
Hi! Could you send only the number? It should be in %, unit omitted.

Examples with their reported remaining at 24 h follow.
CC(=O)NCCC(=O)N[C@@H](CCCCN)C(=O)N[C@@H](CC(C)C)C(=O)N[C@H](C(=O)N[C@@H](C)C(=O)N[C@@H](CC(=O)O)C(=O)N[C@@H](CO)C(=O)N[C@@H](Cc1c[nH]c2ccccc12)C(=O)N[C@@H](C)C(=O)N[C@@H](CO)C(=O)N[C@@H](C)C(=O)N[C@@H](CCC(=O)O)C(=O)NCCC(N)=O)C(C)C [Ser-Trp] (Ac-[βAla]KLVADSWASAE[βAla]-NH2)	86
CSCC[C@H](NC(=O)[C@H](CC(=O)O)NC(=O)[C@H](C)NC(=O)[C@@H](NC(=O)[C@H](CC(C)C)NC(=O)[C@H](CCCCN)NC(=O)CCNC(C)=O)C(C)C)C(=O)N[C@@H](C)C(=O)N[C@@H](C)C(=O)N[C@@H](CO)C(=O)N[C@@H](C)C(=O)N[C@@H](CCC(=O)O)C(=O)NCCC(N)=O [Met-Ala] (Ac-[βAla]KLVADMAASAE[βAla]-NH2)	88
CC(=O)NCCC(=O)N[C@@H](CCCCN)C(=O)N[C@@H](CC(C)C)C(=O)N[C@H](C(=O)N[C@@H](C)C(=O)N[C@@H](CC(=O)O)C(=O)N1CCC[C@H]1C(=O)N[C@@H](Cc1ccc(O)cc1)C(=O)N[C@@H](C)C(=O)N[C@@H](CO)C(=O)N[C@@H](C)C(=O)N[C@@H](CCC(=O)O)C(=O)NCCC(N)=O)C(C)C [KLVAD-PY] (Ac-[βAla]KLVADPYASAE[βAla]-NH2)	94
CC(=O)NCCC(=O)N[C@@H](CCCCN)C(=O)N[C@@H](CC(C)C)C(=O)N[C@H](C(=O)N[C@@H](C)C(=O)N[C@@H](CC(=O)O)C(=O)N1CCC[C@H]1C(=O)N[C@H](C(=O)N[C@@H](C)C(=O)N[C@@H](CO)C(=O)N[C@@H](C)C(=O)N[C@@H](CCC(=O)O)C(=O)NCCC(N)=O)C(C)C)C(C)C [Pro-Val] (Ac-[βAla]KLVADPVASAE[βAla]-NH2)	92

Shifting focus to the compound that follows.
Tell me remaining at 24 h reported for CSCC[C@H](NC(=O)[C@H](CC(=O)O)NC(=O)[C@H](C)NC(=O)[C@@H](NC(=O)[C@H](CC(C)C)NC(=O)[C@H](CCCCN)NC(=O)CCNC(C)=O)C(C)C)C(=O)N[C@@H](Cc1c[nH]cn1)C(=O)N[C@@H](C)C(=O)N[C@@H](CO)C(=O)N[C@@H](C)C(=O)N[C@@H](CCC(=O)O)C(=O)NCCC(N)=O [Met-His] (Ac-[βAla]KLVADMHASAE[βAla]-NH2)
90
